Hello, the source for this data is paper PMC11096781, in case you need it.

- TEST SETTINGS: human, in vivo, iv
REPORTED PROPERTY: clearance (mL/min)
Just the number in mL/min, nothing appended.

Query :: Suppose we examine the compound CCCCCCCCCC(=O)N[C@@H](Cc1c[nH]c2ccccc12)C(=O)N[C@H](CC(N)=O)C(=O)N[C@@H](CC(=O)O)C(=O)N[C@@H]1C(=O)NCC(=O)N[C@@H](CCCN)C(=O)N[C@@H](CC(=O)O)C(=O)N[C@H](C)C(=O)N[C@@H](CC(=O)O)C(=O)NCC(=O)N[C@H](CO)C(=O)N[C@@H]([C@H](C)CC(=O)O)C(=O)N[C@@H](CC(=O)c2ccccc2N)C(=O)O[C@@H]1C [daptomycin, Daptomycin] ; what clearance value has been reported?
Result :: 6.43
